B1: TPR 5TU (parent)
chain: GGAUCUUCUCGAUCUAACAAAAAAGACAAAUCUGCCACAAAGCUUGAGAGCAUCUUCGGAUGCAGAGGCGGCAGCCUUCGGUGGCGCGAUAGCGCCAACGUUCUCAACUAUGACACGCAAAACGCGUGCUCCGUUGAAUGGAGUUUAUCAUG

variants of: B1; assay: polymerase ribozyme fitness, log enrichment relative to wild type (log ratio); higher = more active; in vitro selection for triplet polymerase activity
Variants at the floor of the assay were thinned out.
// label = yes if polymerase ribozyme fitness (log ratio) is not less than -3, otherwise no

Here are 5 variants together with their reported answers.
{"columns": ["change", "category"],
 "data": [
  ["A60G C69A G88A C95G U101A A106C A107G A119C U148A", "no"],
  ["A91G C116G", "yes"],
  ["U4G U7G U13G C43A C54U U78G G94C", "no"],
  ["A17U C32U G128U", "no"],
  ["C8G A12C A23G A52U C57U C93A C95G A110U", "no"]
]}

Determine whether this variant has polymerase ribozyme fitness (log ratio) no lower than -3: A16C G59A C76A C85G U139A
no

Determine whether this variant has polymerase ribozyme fitness (log ratio) no lower than -3: G58C C103A U145G
yes

Determine whether this variant has polymerase ribozyme fitness (log ratio) no lower than -3: C5G U56A G84U U144A
no

Determine whether this variant has polymerase ribozyme fitness (log ratio) no lower than -3: A73G C99U
yes
